Data provenance is ChEMBL document CHEMBL3792301.

Test system: MCF7
Test: Antiproliferative activity against apoptosis sensitive human MCF7 cells after 72 hrs by MTT assay
Format: functional, cell-based
Settings: MCF7, 72 h
Reported Property: IC50 (µM)

- Smiles Notation: "O=C1Nc2ccccc2/C1=C1/Cc2ccccc2C1=O"
  Target Under Test: "MCF7"
  Reported Property: "IC50"
  Unit String: "µM"
  Obs Value: 70.2

1: O=C1NC(=S)S/C1=C1\C(=O)Nc2ccc(Br)cc21
2: O=C1Nc2ccccc2/C1=C1/Cc2ccccc2/C1=N\O
## Task Of 1 and 2 , which one carries the higher reported IC50? Give the chosen item's label as your response.
## Result 1
(1: 82.9 µM, 2: 38.5 µM)
